Tested on: bacterial strain SK-1
Protocol Text: Growth substrate tests in liquid medium
Format: cell-based
Test Parameters: initial concentration 100 parts per million, except chlorobenzoate 2-3 millimolar
Recorded Endpoint: Growth of SK-1 on the substrate as sole carbon source

Compound	Result
Oc1ccccc1	Yes
O=C(O)c1cccc(Cl)c1 [3-chlorobenzoate]	No
Clc1ccccc1-c1ccccc1	Yes
